test system: 485368-065-R3-J5-PDC spheroids with HUVEC/MSC, viability; experiment: Anticancer human tumor 485368-065-R3-J5-PDC patient-derived pancreatic carcinoma cell line growth inhibition [RAS]; conditions: curve of compound
// reported IC50 per item

Field: example entries. Status: answers known.
CC(C)n1nc(-c2ccc3oc(N)nc3c2)c2c(N)ncnc21 ... 22.7 nM [middle of 4 runs]
Cc1nc(N2CCC3(CC2)COC(C)C3N)c(CO)nc1Sc1ccnc(N)c1Cl (stereo not drawn) ... > 10 µM

Shifting focus to the compound that follows.
Which IC50 value is on record for CC(=O)OC12COC1CC(O)C1(C)C(=O)C(O)C3=C(C)C(OC(=O)C(O)C(NC(=O)OC(C)(C)C)c4ccccc4)CC(O)(C(OC(=O)c4ccccc4)C21)C3(C)C (stereo not drawn) ?
< 0.0316 µM

----------
system: 485368-065-R3-J5-PDC spheroids with HUVEC/MSC, viability; assay: Anticancer human tumor 485368-065-R3-J5-PDC cell line growth inhibition [RAS]; details: second compound 0.000949 µM; first compound 0.01 µM; stronger effect = lower value;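 further: spheroids exposed to agents for seven days before readout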
quantity: viability, T/C (%)
Could you give me the number in %? Just the number is fine.

Which viability, T/C value is on record for C=CC(=O)Nc1cc(Nc2nccc(-c3cn(C)c4ccccc34)n2)c(OC)cc1N(C)CCN(C)C + CCn1c(-c2cc(N3CCN(C)CC3)cnc2C(C)OC)c2c3cc(ccc31)-c1csc(n1)CC(NC(=O)C1CC1C)C(=O)N1CCCC(N1)C(=O)OCC(C)(C)C2 ?
34.1

Also O=C(c1ccc(F)c(F)c1Nc1ccc(I)cc1F)N1CC(O)([C@@H]2CCCCN2)C1 + CCn1c(-c2cc(N3CCN(C)CC3)cnc2C(C)OC)c2c3cc(ccc31)-c1csc(n1)CC(NC(=O)C1CC1C)C(=O)N1CCCC(N1)C(=O)OCC(C)(C)C2 , if possible.
29.9

----------
system: 485368-065-R3-J5-PDC spheroids with HUVEC/MSC, viability; assay: Anticancer human tumor 485368-065-R3-J5-PDC cell line growth inhibition [RAS]; details: curve of first compound; second compound 0.00949 µM;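 further: spheroids exposed to agents for seven days before readout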
pIC50: −log10 of the molar value.
// reported pIC50 per item

Field: example entries. Status: answers known.
Nc1ccn(C2OC(CO)C(O)C2(F)F)c(=O)n1 (configuration not stated) + CCn1c(-c2cc(N3CCN(C)CC3)cnc2C(C)OC)c2c3cc(ccc31)-c1csc(n1)CC(NC(=O)C1CC1C)C(=O)N1CCCC(N1)C(=O)OCC(C)(C)C2 ... > 8.50
CC(=O)OC12COC1CC(O)C1(C)C(=O)C(O)C3=C(C)C(OC(=O)C(O)C(NC(=O)OC(C)(C)C)c4ccccc4)CC(O)(C(OC(=O)c4ccccc4)C21)C3(C)C (configuration not stated) + CCn1c(-c2cccnc2C(C)OC)c2c3cc(ccc31)N1CCOC(CC(NC(=O)C(C(C)C)N(C)C(=O)C3(F)CCN(C(=O)C#CC(C)(C)N(C)C)CC3)C(=O)N3CCCC(N3)C(=O)OCC(C)(C)C2)C1 ... > 7.50
C=CC(=O)Nc1cc(Nc2nccc(-c3cn(C)c4ccccc34)n2)c(OC)cc1N(C)CCN(C)C + CCn1c(-c2cccnc2C(C)OC)c2c3cc(ccc31)N1CCOC(CC(NC(=O)C(C(C)C)N(C)C(=O)C3(F)CCN(C(=O)C#CC(C)(C)N(C)C)CC3)C(=O)N3CCCC(N3)C(=O)OCC(C)(C)C2)C1 ... < 6.00
C=CC(=O)N1CCN(c2nc(OCC3CCCN3C)nc3c(F)c(-c4nc(N)cc(C)c4C(F)(F)F)c(Cl)cc23)C(C)C1 (configuration not stated) + CCn1c(-c2cc(N3CCN(C)CC3)cnc2C(C)OC)c2c3cc(ccc31)-c1csc(n1)CC(NC(=O)C1CC1C)C(=O)N1CCCC(N1)C(=O)OCC(C)(C)C2 ... > 8.50
CC1(O)CCCC1n1c(=O)c(C(F)F)cc2cnc(NC3CCN(S(C)(=O)=O)CC3)nc21 (configuration not stated) + CCn1c(-c2cccnc2C(C)OC)c2c3cc(ccc31)N1CCOC(CC(NC(=O)C(C(C)C)N(C)C(=O)C3(F)CCN(C(=O)C#CC(C)(C)N(C)C)CC3)C(=O)N3CCCC(N3)C(=O)OCC(C)(C)C2)C1 ... 6.24
Cc1nc(N2CCC3(CC2)COC(C)C3N)c(CO)nc1Sc1ccnc(N)c1Cl (configuration not stated) + CCn1c(-c2cccnc2C(C)OC)c2c3cc(ccc31)N1CCOC(CC(NC(=O)C(C(C)C)N(C)C(=O)C3(F)CCN(C(=O)C#CC(C)(C)N(C)C)CC3)C(=O)N3CCCC(N3)C(=O)OCC(C)(C)C2)C1 ... < 5.00

Shifting focus to the molecule that follows.
Which pIC50 value is on record for NC1c2ccccc2OC12CCN(c1cnc3c(N4CCCc5ncccc54)n[nH]c3n1)CC2 (configuration not stated) + CCn1c(-c2cc(N3CCN(C)CC3)cnc2C(C)OC)c2c3cc(ccc31)-c1csc(n1)CC(NC(=O)C1CC1C)C(=O)N1CCCC(N1)C(=O)OCC(C)(C)C2 ?
> 7.50
